- Test system: HIV-1NL4-3 Wild Type
- assay info: Luminescence reduction assay, MT4 cells infected with HIV-1NL4-3 luciferase reporter virus, wild type
- Format: cell-based
- test conditions: Human immunodeficiency virus 1, MT4, MT4 cells, 2% FCS
Each item that follows carries a reported EC50.
Report the value in µM with no unit label.

Consider the reported EC50 for these compounds:
>  <record smiles>
Cc1cc(-n2nc(C(=O)N3CNC(=O)C3)cc2-c2cc(F)cc(Cl)c2)ccn1

>  <measured parameter>
EC50

>  <numeric value>
0.092

$$$$
>  <record smiles>
Cc1cc(-n2nc(C(=O)N3CNC(=O)C3)cc2-c2cc(Br)cc(OC(F)(F)F)c2)ccn1

>  <measured parameter>
EC50

>  <numeric value>
0.023

$$$$

q: Identify the measured EC50 of O=C1CN(C(=O)c2cc(-c3cc(F)cc(Cl)c3)n(-c3ccnc(C(F)(F)F)c3)n2)CN1 for HIV-1NL4-3 Wild Type.
a: 0.055

* * *

- Tested on: HIV-1NL4-3 Wild Type
- assay info: Luminescence reduction assay, MT4 cells infected with HIV-1NL4-3 luciferase reporter virus, wild type
- Format: cell-based
- test conditions: Human immunodeficiency virus 1, MT4, MT4 cells, 2% FCS
Each item that follows carries a reported EC50.

Consider the reported EC50 for these molecules:
>  <record smiles>
O=C1CN(C(=O)c2cc(-c3cc(Br)cc(OC(F)(F)F)c3)n(-c3ccnc(Cl)c3)n2)CN1

>  <result>
0.01 µM

$$$$
>  <record smiles>
O=C1CN(C(=O)c2cc(-c3cncc(Cl)c3)n(-c3ccc(F)c(Cl)c3)n2)CN1

>  <result>
0.005 µM

$$$$
>  <record smiles>
O=C(c1cc(-c2cc(F)cc(OCC(F)(F)F)c2)n(-c2cccnc2)n1)N1CCS(=O)(=O)C1

>  <result>
0.004 µM

$$$$

q: Look at this molecule and give its reported EC50. O=C(c1cc(-c2cc(Br)cc(OC(F)(F)F)c2)n(-c2ccc(Cl)nc2)n1)N1CCS(=O)(=O)C1
a: 0.023 µM

* * *

- Test system: HIV-1NL4-3 Wild Type
- assay info: Luminescence reduction assay, MT4 cells infected with HIV-1NL4-3 luciferase reporter virus, wild type
- Format: cell-based
- test conditions: Human immunodeficiency virus 1, MT4, MT4 cells, 2% FCS
EC50 under 0.04 µM gets Fulfilled, anything at or over 0.04 µM gets Not fulfilled.

# example entries with known answers
>  <molecule>
O=C1CN(C(=O)c2cc(-c3cc(F)cc(OCC(F)(F)F)c3)n(-c3cccnc3)n2)CN1 [Example 70]

>  <class name>
Fulfilled

$$$$
>  <molecule>
O=C1CN(C(=O)c2cc(-c3cc(Br)cc(OC(F)(F)F)c3)n(-c3ccccn3)n2)CN1 [Example 26]

>  <class name>
Not fulfilled

$$$$

q: Input O=C1CN(C(=O)c2cc(-c3cc(Br)cc(OC(F)(F)F)c3)n(-c3cncc(Cl)c3)n2)CCN1 [Example 43] ; condition: EC50 strictly below 0.04 µM. Does it hold?
a: Not fulfilled

q: And what about the molecule O=C1CN(C(=O)c2cc(-c3cc(F)cc(Cl)c3)n(-c3cncc(Cl)c3)n2)CN1 [Example 9] ?
a: Fulfilled

q: And what about the molecule O=C1CN(C(=O)c2cc(-c3cc(Br)cc(OC(F)F)c3)n(-c3cccnc3)n2)CN1 [Example 56] ?
a: Fulfilled

q: And what about the molecule O=C(c1cc(-c2cc(Cl)cc(OC(F)(F)F)c2)n(-c2cccnc2)n1)N1CCSC1 [Example 77] ?
a: Not fulfilled

q: And what about the molecule O=C1CN(C(=O)c2cc(-c3cc(Br)cc(OC(F)(F)F)c3)n(-c3ccc(F)nc3)n2)CN1 [Example 39] ?
a: Fulfilled

q: And what about the molecule COc1cc(Br)cc(-c2cc(C(=O)N3CNC(=O)C3)nn2-c2cccnc2)c1 [Example 94] ?
a: Fulfilled
